# Tested on: MDA-MB-231
# experimental-details: Antiproliferative activity against human MDA-MB-231 cells after 48 hrs by MTT assay
# Format: functional, cell-based
# test-settings: MDA-MB-231, 48 h
Consider the following compounds and their measured IC50 readings.

# compound-string, endpoint-unit, IC50
records = [
    ("COc1cc(NS(=O)(=O)c2ccc(F)cc2)c2cc1Oc1ccc(cc1)C[C@H]1c3cc(c(OC)cc3CCN1C)Oc1c(OC)c(OC)cc3c1[C@H](C2)N(C)CC3", "µM", 7.79),
    ("COc1cc(NS(=O)(=O)c2ccccc2Cl)c2cc1Oc1ccc(cc1)C[C@H]1c3cc(c(OC)cc3CCN1C)Oc1c(OC)c(OC)cc3c1[C@H](C2)N(C)CC3", "µM", 7.42),
    ("COc1cc(NS(=O)(=O)c2cccc([N+](=O)[O-])c2)c2cc1Oc1ccc(cc1)C[C@H]1c3cc(c(OC)cc3CCN1C)Oc1c(OC)c(OC)cc3c1[C@H](C2)N(C)CC3", "µM", 6.37),
]
